B1: Formin-binding protein 4, residues 200 to 261; numbered along this chain, Q8N3X1 (parent)
chain: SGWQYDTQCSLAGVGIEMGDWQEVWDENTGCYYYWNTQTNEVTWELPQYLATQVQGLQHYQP

Variants of: B1
METHOD_SUMMARY: abundance fitness (aPCA) (normalised: wild type 0, dead -1); higher = more abundant; growth selection in yeast, the domain comes from the species named
EXPERIMENTAL_CONTEXT: Homo sapiens
Note to self: class = bucket of abundance fitness, per class 0: < -0.2; class 1: ≥ -0.2 and < -0.1; class 2: ≥ -0.1

[[record]]
mutations = "C31M"
class_assignment = "class 1"

[[record]]
mutations = "W44F"
class_assignment = "class 1"

[[record]]
mutations = "N40P"
class_assignment = "class 0"

[[record]]
mutations = "H59E"
class_assignment = "class 2"

[[record]]
mutations = "W3K"
class_assignment = "class 2"

[[record]]
mutations = "V24Y"
class_assignment = "class 1"

[[record]]
mutations = "A51T"
class_assignment = "class 0"

[[record]]
mutations = "A12D"
class_assignment = "class 0"

[[record]]
mutations = "T7L"
class_assignment = "class 0"

[[record]]
mutations = "V54F"
class_assignment = "class 0"


Values from the Human Domainome abundance scans (Beltran et al. 2025)
